Method Description: Pharmacokinetic analysis, plasma and brain
Type: in vivo, ICR (CD-1) male mice
Experimental Parameters: male, ICR (CD-1), mouse, plasma; mice; PO 30 mg/kg; read-out: Half-life in plasma (converted)
Documented half-life across a set of compounds
// note: answer is a bare numeric in h

Clc1ccc2c(c1)OCC(c1ccc(-c3ccccc3)cc1)=N2 :: 7.5

Below: the item to evaluate.
Query: Can you share its half-life? I mean this compound: CC(=O)Nc1ccc(C2=Nc3ccc(Cl)cc3OC2)cc1
Reply: 2.2

---

System: NIH3T3 cells stably expressing the mCherry-GFP-LC3 reporter
Method Description: Macroautophagy activity, mCherry-GFP-LC3 reporter
Type: cell-based, mouse
Experimental Parameters: c0 = 2 (axis unlabelled; ANOVA calls row factor Time)
Observable: APG (Fig. S3e)
Form: value (number only, do not type unit).

CO[C@H]1C[C@@H]2CC[C@@H](C)[C@@](O)(O2)C(=O)C(=O)N2CCCC[C@H]2C(=O)O[C@H]([C@H](C)C[C@@H]2CC[C@@H](O)[C@H](OC)C2)CC(=O)[C@H](C)/C=C(\C)[C@@H](O)[C@@H](OC)C(=O)[C@H](C)C[C@H](C)/C=C/C=C/C=C/1C [rapamycin, reference compound] :: 1.605

Query: Can you share its APG (Fig. S3e)? I mean this molecule: Cc1ccc(C2=Nc3ccc(Cl)cc3OC2)cc1 [AR7, reference compound]
Reply: 0.9242

Query: Lookup Clc1ccc2c(c1)OCC(c1ccc(-c3ccccc3)cc1)=N2 [CA39]
Reply: 3.494

Query: Lookup CC(=O)Nc1ccc(C2=Nc3ccc(Cl)cc3OC2)cc1 [CA77]
Reply: 3.899

---

Method Description: Pharmacokinetic analysis, plasma and brain
Type: in vivo, ICR (CD-1) male mice
Experimental Parameters: male, ICR (CD-1), mouse, brain, iv, 1 mg/Kg, i.v., Time 2 h, individual animals; read-out: B/P, Brian/Plasma
Observable: Kp at 2 h
Form: value (number only, do not type unit).

Query: Can you share its Kp at 2 h? I mean this molecule: Clc1ccc2c(c1)OCC(c1ccc(-c3ccccc3)cc1)=N2 [CA39]
Reply: 5.36

---

Method Description: Pharmacokinetic analysis, plasma and brain
Format: in vivo, ICR (CD-1) male mice
Experimental Parameters: male, ICR (CD-1), mouse, brain, iv, 1 mg/Kg, i.v., Time 8 h, mean; read-out: B/P, Brian/Plasma, Mean
Observable: Kp at 8 h
Form: value (number only, do not type unit).

Query: Can you share its Kp at 8 h? I mean this compound: Clc1ccc2c(c1)OCC(c1ccc(-c3ccccc3)cc1)=N2 [CA39]
Reply: 13.3

---

Method Description: Pharmacokinetic analysis, plasma and brain
Assay type: in vivo, ICR (CD-1) male mice
Experimental Parameters: male, ICR (CD-1), mouse, brain, iv, 1 mg/Kg, i.v., Time 24 h, mean; read-out: B/P, Brian/Plasma, Mean
Observable: Kp at 24 h
Form: value (number only, do not type unit).

Query: Can you share its Kp at 24 h? I mean this compound: Clc1ccc2c(c1)OCC(c1ccc(-c3ccccc3)cc1)=N2 [CA39]
Reply: 14.2

# credit: paper PMC9304322
